Tested on: HepG2
Assay: Antiproliferative activity against human HepG2 cells assessed as inhibition of cell proliferation measured after 72 hrs by MTT assay
Type: functional, cell-based
Conditions: HepG2, 72 h
List of pIC50 values.
To interpret pIC50, take it as minus log10 of a concentration measured in moles per litre.

API: value(readout= pIC50, system= HepG2, query= CC1=C(O)C(=O)C=C2C1=CC=C1[C@@]2(C)CC[C@@]2(C)[C@@H]3C[C@](C)(C(=O)O)CC[C@]3(C)CC[C@]12C ) 6.03

Now the compound CC1=C(O)C(=O)C=C2C1=CC=C1[C@@]2(C)CC[C@@]2(C)[C@@H]3C[C@](C)(C(=O)NC(CC(=O)NC(CC(=O)OC(C)(C)C)C(=O)OC(C)(C)C)C(=O)OC(C)(C)C)CC[C@]3(C)CC[C@]12C (stereo not given in full) 5.10

Now the compound CC1=C(O)C(=O)C=C2C1=CC=C1[C@@]2(C)CC[C@@]2(C)[C@@H]3C[C@](C)(C(=O)NC(CCC(=O)N(CC(=O)OC(C)(C)C)C(=O)OC(C)(C)C)C(=O)OC(C)(C)C)CC[C@]3(C)CC[C@]12C (stereo not given in full) 5.81

Now the compound CC1=C(O)C(=O)C=C2C1=CC=C1[C@@]2(C)CC[C@@]2(C)[C@@H]3C[C@](C)(C(=O)NCCCNC(=O)OC(C)(C)C)CC[C@]3(C)CC[C@]12C 5.71

Now the compound CC1=C(O)C(=O)C=C2C1=CC=C1[C@@]2(C)CC[C@@]2(C)[C@@H]3C[C@](C)(C(=O)NC(CC(=O)OC(C)(C)C)C(=O)NC(CC(=O)OC(C)(C)C)C(=O)OC(C)(C)C)CC[C@]3(C)CC[C@]12C (stereo not given in full) 5.91

* * *

Assay: Selectivity index, ratio of IC50 for human L02 cells to IC50 for human HepG2 cells
Assay type: toxicity
Conditions: L02 cells versus HepG2 cells, read-out: Ratio IC50
value.kind: selectivity ratio
Number only, please.

[[record]]
molecule = "CC1=C(O)C(=O)C=C2C1=CC=C1[C@@]2(C)CC[C@@]2(C)[C@@H]3C[C@](C)(C(=O)NC(CC(=O)NC(CC(=O)OC(C)(C)C)C(=O)OC(C)(C)C)C(=O)OC(C)(C)C)CC[C@]3(C)CC[C@]12C (stereo partly drawn)"
value_kind = "selectivity ratio"
assay_value = 2.39

[[record]]
molecule = "CC1=C(O)C(=O)C=C2C1=CC=C1[C@@]2(C)CC[C@@]2(C)[C@@H]3C[C@](C)(C(=O)NC(CCC(=O)N(CC(=O)OC(C)(C)C)C(=O)OC(C)(C)C)C(=O)OC(C)(C)C)CC[C@]3(C)CC[C@]12C (stereo partly drawn)"
value_kind = "selectivity ratio"
assay_value = 1.52


Please turn your attention to the following entry.
GET /values?readout=selectivity ratio&item= CC1=C(O)C(=O)C=C2C1=CC=C1[C@@]2(C)CC[C@@]2(C)[C@@H]3C[C@](C)(C(=O)NC(CC(=O)NC(CCC(=O)OC(C)(C)C)C(=O)OC(C)(C)C)C(=O)OC(C)(C)C)CC[C@]3(C)CC[C@]12C (stereo partly drawn) 3.43

* * *

List of Ratio IC50 values.
Assay: Selectivity index, ratio of IC50 for human CCD 19Lu cells to IC50 for human HePAD38 cells
Number only, please.

Use the examples below as a reference point.
[[record]]
compound = "CC1=C(O)C(=O)C=C2C1=CC=C1[C@@]2(C)CC[C@@]2(C)[C@@H]3C[C@](C)(C(=O)NC(CC(=O)NC(CC(=O)OC(C)(C)C)C(=O)OC(C)(C)C)C(=O)OC(C)(C)C)CC[C@]3(C)CC[C@]12C (some centres not stated)"
assay_value = 1.07

[[record]]
compound = "CC1=C(O)C(=O)C=C2C1=CC=C1[C@@]2(C)CC[C@@]2(C)[C@@H]3C[C@](C)(C(=O)NC(CCC(=O)N(CC(=O)OC(C)(C)C)C(=O)OC(C)(C)C)C(=O)OC(C)(C)C)CC[C@]3(C)CC[C@]12C (some centres not stated)"
assay_value = 3.4

[[record]]
compound = "CC1=C(O)C(=O)C=C2C1=CC=C1[C@@]2(C)CC[C@@]2(C)[C@@H]3C[C@](C)(C(=O)NC(CC(=O)OC(C)(C)C)C(=O)NC(CC(=O)OC(C)(C)C)C(=O)OC(C)(C)C)CC[C@]3(C)CC[C@]12C (some centres not stated)"
assay_value = 5

[[record]]
compound = "CC1=C(O)C(=O)C=C2C1=CC=C1[C@@]2(C)CC[C@@]2(C)[C@@H]3C[C@](C)(C(=O)NC(CC(=O)OC(C)(C)C)C(=O)NC(CCC(=O)OC(C)(C)C)C(=O)OC(C)(C)C)CC[C@]3(C)CC[C@]12C (some centres not stated)"
assay_value = 0.61


GET /values?readout=Ratio IC50&item= CC1=C(O)C(=O)C=C2C1=CC=C1[C@@]2(C)CC[C@@]2(C)[C@@H]3C[C@](C)(C(=O)NC(CCC(=O)NC(CCC(=O)OC(C)(C)C)C(=O)OC(C)(C)C)C(=O)OC(C)(C)C)CC[C@]3(C)CC[C@]12C (some centres not stated) 12

Now the compound CC1=C(O)C(=O)C=C2C1=CC=C1[C@@]2(C)CC[C@@]2(C)[C@@H]3C[C@](C)(C(=O)O)CC[C@]3(C)CC[C@]12C 0.48

Now the compound CC1=C(O)C(=O)C=C2C1=CC=C1[C@@]2(C)CC[C@@]2(C)[C@@H]3C[C@](C)(C(=O)NC(CC(=O)NC(CCC(=O)OC(C)(C)C)C(=O)OC(C)(C)C)C(=O)OC(C)(C)C)CC[C@]3(C)CC[C@]12C (some centres not stated) 2.28
